All values here come from patent US7538129B2.

Assay: pharmacokinetics, intratumoral concentration after intravenous injection
Type: in vivo
Details: mouse, tumor, mice with MDA-MB-435 xenograft tumors, read-out: volume of distribution
Endpoint: Vd
Provide the measurement as a number trailed by its unit.

CC(C)[C@H](O)C(=O)N[C@H]1Cc2ccc3c(c2)[C@]24C5=C(N=C(O5)[C@H](C(C)C)NC1=O)c1ncc(o1)-c1c[nH]c5cccc(c15)-c1cccc2c1NC4O3 (stereo in doubt) [Compound J] yielded Vd of 2.9 L/kg
